meta.source: patent US20130217664A1

List of IC50 values.
# Experimental System: human JAK2 (Homo sapiens, UniProt O60674)
# Construct: catalytic domain (amino acids 808-1132; catalog number PV4210); GST
# Sequence (O60674 808-1132): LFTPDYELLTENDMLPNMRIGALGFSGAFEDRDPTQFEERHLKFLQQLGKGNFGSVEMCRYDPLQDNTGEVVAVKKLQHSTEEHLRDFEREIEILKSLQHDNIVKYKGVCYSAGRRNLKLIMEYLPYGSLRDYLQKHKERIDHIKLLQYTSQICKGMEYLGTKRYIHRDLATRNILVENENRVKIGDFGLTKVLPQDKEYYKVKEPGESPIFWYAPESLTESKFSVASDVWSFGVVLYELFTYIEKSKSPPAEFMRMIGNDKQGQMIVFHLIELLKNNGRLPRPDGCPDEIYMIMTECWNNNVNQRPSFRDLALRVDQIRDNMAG
# Measurement Protocol: JAK2 inhibition assay (polyGT substrate / Ulight-JAK1 peptide)
# Measurement Parameters: recombinant human JAK2 catalytic domain; polyGT or Ulight-JAK1 peptide assay

Take a look at these entries with their results.
| Compound | Experimental System | Measured Parameter | Result |
| --- | --- | --- | --- |
| CCc1ccccc1N(CC)c1cc2c(cn1)ncn2C | human JAK2 (Homo sapiens, UniProt O60674) | IC50 | 501 to 1000 nM |
| CCc1c(C(=O)OC)cccc1N(C)c1cc2c(cn1)ncn2C | human JAK2 (Homo sapiens, UniProt O60674) | IC50 | > 1000 nM |
| Cc1ccc(OCC#N)cc1N(C)c1cc2c(cn1)ncn2C | human JAK2 (Homo sapiens, UniProt O60674) | IC50 | 101 to 500 nM |

[in] # lookup: IC50 of "COc1ccc(COc2ccc(N(C)c3cc4c(cn3)ncn4C)c(C)c2)cc1"
[out] > 1000 nM

[in] Let us now turn to CCc1cc(C(C#N)N2CCN(C(C)=O)CC2)ccc1N(C)c1cc2c(cn1)ncn2C (stereo not shown)
[out] 0.01 to 100 nM

[in] Let us now turn to "CCc1cc(C2CN(C(=O)C3CCOCC3)C2)ncc1N(C)c1cc2c(cn1)ncn2C"
[out] > 1000 nM

[in] Let us now turn to "CCc1cc(CN2CCC(F)(F)CC2)ccc1N(C)c1cc2c(cn1)ncn2C"
[out] 501 to 1000 nM

###

# Tested on: pSTAT1(2)-luciferase reporter in HeLa cells triggered with human OSM
# Measurement Protocol: JAK-STAT signalling assay
# Format: cell-based
# Measurement Parameters: Homo sapiens, HeLa, HeLa cells, pSTAT1(2)-luciferase reporter, human OSM 33 ng/mL; read-out: JAK-STAT IC50
pIC50: −log10 of the molar value.
Measured Parameter: pIC50

[in] # lookup: pIC50 of "CCc1cc(C2=CCN(C(=O)C3(C#N)CC3)CC2)ccc1N(C)c1cc2c(cn1)ncn2C"
[out] 6.00 to 6.30

[in] Let us now turn to "CCc1cc(C2=CCN(C(=O)CC(C)(C)O)CC2)ccc1N(C)c1cc2c(cn1)ncn2C"
[out] 6.00 to 6.30

[in] Let us now turn to "CCc1cc(C2=CCN(S(=O)(=O)CC#N)CC2)ccc1N(C)c1cc2c(cn1)ncn2C"
[out] 6.30 to 9.00

[in] Let us now turn to "CCc1cc(C2=CCN(C(=O)CCC#N)CC2)ccc1N(C)c1cc2c(cn1)ncn2C"
[out] 6.00 to 6.30

[in] Let us now turn to "CCc1cc(-c2noc(CC#N)n2)ccc1N(C)c1cc2c(cn1)ncn2C"
[out] 6.00 to 6.30

###

# Experimental System: human TYK2 (Homo sapiens)
# Construct: catalytic domain (amino acids 871-1187; catalog number 08-147)
# Sequence (P29597 871-1187): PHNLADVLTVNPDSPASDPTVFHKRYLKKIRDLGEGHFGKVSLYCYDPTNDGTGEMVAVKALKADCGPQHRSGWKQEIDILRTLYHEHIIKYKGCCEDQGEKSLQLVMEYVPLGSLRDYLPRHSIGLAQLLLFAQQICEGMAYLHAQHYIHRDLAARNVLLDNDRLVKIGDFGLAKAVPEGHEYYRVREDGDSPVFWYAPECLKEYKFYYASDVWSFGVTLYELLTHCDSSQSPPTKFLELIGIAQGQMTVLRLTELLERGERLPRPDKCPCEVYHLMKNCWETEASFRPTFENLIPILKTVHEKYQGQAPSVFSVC
# Measurement Protocol: TYK2 inhibition assay
# Measurement Parameters: recombinant human TYK2 catalytic domain, polyGT substrate
List of IC50 values.

| Line Notation | Experimental System | Measured Parameter | Result |
| --- | --- | --- | --- |
| Cc1cc(OCC#N)ccc1N(C)c1cc2c(cn1)ncn2C | human TYK2 (Homo sapiens) | IC50 | 101 to 500 nM |
| CCc1cc(-c2ccc(O)nc2)ccc1N(C)c1cc2c(cn1)ncn2C | human TYK2 (Homo sapiens) | IC50 | 0.01 to 100 nM |
| CCc1cc(-c2noc(CC#N)n2)ccc1N(C)c1cc2c(cn1)ncn2C | human TYK2 (Homo sapiens) | IC50 | 0.01 to 100 nM |

[in] # lookup: IC50 of "CCc1cc(C2CCN(C(=O)COC)CC2)ccc1N(C)c1cc2c(cn1)ncn2C"
[out] 0.01 to 100 nM

[in] Let us now turn to "CCc1cc(C2CCN(CC#N)CC2)ncc1N(C)c1cc2c(cn1)ncn2C"
[out] 101 to 500 nM
